# System: KAI3 (IL-2 2.5 ng/mL)
# assay.text: percent inhibition of viability; higher = more inhibition;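 note: normalised to DMSO-only wells as negative and benzethonium chloride as positive control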
# condition.parameters: 72 h; 10 nM
Please provide measured percent inhibition of viability for the entries that follow.
Numbers only, in %.

{"molecule": "N#CCNC(=O)c1ccc(-c2ccnc(Nc3ccc(N4CCOCC4)cc3)n2)cc1 [Momelotinib] (max concentration tested 10000 nM)", "percent inhibition of viability / %": 5.27}
{"molecule": "C[C@]12CC[C@@H]3c4ccc(O)cc4C[C@@H](CCCCCCCCC[S+]([O-])CCCC(F)(F)C(F)(F)F)[C@H]3[C@@H]1CC[C@@H]2O (stereo partly specified) [Fulvestrant] (max concentration tested 1000 nM)", "percent inhibition of viability / %": 8.43}
{"molecule": "C[C@]12O[C@H](C[C@]1(O)CO)n1c3ccccc3c3c4c(c5c6ccccc6n2c5c31)CNC4=O [Lestaurtinib] (max concentration tested 1000 nM)", "percent inhibition of viability / %": 35.9}
{"molecule": "Cc1cc2c(F)c(Oc3ncnn4cc(OC[C@@H](C)O)c(C)c34)ccc2[nH]1 [Brivanib] (max concentration tested 1000 nM)", "percent inhibition of viability / %": -5.53}
{"molecule": "CC/C(=C(\\c1ccc(O)cc1)c1ccc(OCCN(C)C)cc1)c1ccccc1 [4-hydroxytamoxifen] (max concentration tested 10000 nM)", "percent inhibition of viability / %": 10.1}

Pending molecule:
### Prompt Value wanted: percent inhibition of viability (KAI3 (IL-2 2.5 ng/mL)) of entry CNC(=O)c1ccc2cc([C@@]3(O)CCn4cncc43)ccc2c1 [Orteronel] (max concentration tested 10000 nM)
### Response -0.59

---

# Test system: NK-YS (IL-2 2.5 ng/mL)
# assay.text: percent inhibition of viability; higher = more inhibition
# condition.parameters: 72 h; 1000 nM
reported.property: percent inhibition of viability (%)
Give bare numbers, in %.

Study these solved cases before continuing.
{"compound": "CC[C@H](C)C(=O)O[C@H]1C[C@@H](C)C=C2C=C[C@H](C)[C@H](CC[C@@H]3C[C@@H](O)CC(=O)O3)[C@H]21 [Lovastatin] (max concentration tested 10000 nM)", "endpoint.unit": "%", "recorded.measurement": 9.14}
{"compound": "CC/C(=C(\\c1ccccc1)c1ccc(OCCN(C)C)cc1)c1ccccc1 [Tamoxifen] (max concentration tested 10000 nM)", "endpoint.unit": "%", "recorded.measurement": 2.63}
{"compound": "C=CCN(/C=C1/C(=O)O[C@H](COC)[C@@]2(C)C1=C(O)C(=O)C1=C2[C@H](OC(C)=O)C[C@]2(C)C(=O)CC[C@@H]12)CC=C [Sonolisib] (max concentration tested 10000 nM)", "endpoint.unit": "%", "recorded.measurement": 13.8}
{"compound": "CN[C@@H](C)C(=O)N[C@H]1CN(C(=O)CC(C)C)CC[C@H]2CC[C@@H](C(=O)NC(c3ccccc3)c3ccccc3)N2C1=O [AT-406] (max concentration tested 10000 nM)", "endpoint.unit": "%", "recorded.measurement": -3.43}
{"compound": "Cc1ccc(C(=O)Nc2ccc(CN3CCN(C)CC3)c(C(F)(F)F)c2)cc1C#Cc1cnc2cccnn12 [Ponatinib] (max concentration tested 1000 nM)", "endpoint.unit": "%", "recorded.measurement": 33.5}

Pending compound:
### Prompt Suppose we examine the compound CCC1(c2ccc(N)cc2)CCC(=O)NC1=O (stereo unspecified) [Aminoglutethimide] (max concentration tested 10000 nM) ; what percent inhibition of viability value has been reported?
### Response 7.56
